subject_of_test: UniProt P33033
Sequence (P33033 whole entry): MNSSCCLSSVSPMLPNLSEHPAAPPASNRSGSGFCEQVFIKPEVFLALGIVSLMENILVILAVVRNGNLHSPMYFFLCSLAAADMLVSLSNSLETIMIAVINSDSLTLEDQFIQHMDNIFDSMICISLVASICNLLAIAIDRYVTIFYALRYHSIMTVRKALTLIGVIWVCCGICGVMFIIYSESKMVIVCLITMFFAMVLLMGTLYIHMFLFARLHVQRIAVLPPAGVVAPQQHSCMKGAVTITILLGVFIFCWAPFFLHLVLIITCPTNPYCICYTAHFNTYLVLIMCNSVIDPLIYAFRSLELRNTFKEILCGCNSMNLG
test_method_notes: Functional bioassay, CRE/β-galactosidase reporter in HEK-293 cells stably expressing mMC3R
pEC50: −log10 of the molar value. Where a SMILES comes first, the peptide text is derived from it. Bridges are numbered along the chain shown (N, C = ends). [ ]: non-standard residue; d: D form. Dap = NC[C@H](N)C(=O)O
property_name: pEC50

molecule	observed
C[C@@H]1NC(=O)[C@H](C)NC(=O)[C@@H](NC(=O)[C@@H](N)Cc2ccc(O)cc2)CC(=O)NC[C@@H](C(=O)N[C@@H](Cc2ccc(O)cc2)C(N)=O)NC(=O)[C@H](Cc2ccccc2)NC(=O)[C@H](C)NC(=O)[C@H](CC(N)=O)NC(=O)[C@H](C)NC1=O [SEQ ID NO: 2] (H-YDAAANAF[Dap]Y-NH2; lactam 2-9)	< 4.00
